experimental target: PfCRT^Dd2 (Plasmodium falciparum, UniProt Q9N623, A220S/I356T/K76T/M74I/N326S/N75E/Q271E/R371I)
Sequence (Q9N623 whole entry A220S/I356T/K76T/M74I/N326S/N75E/Q271E/R371I): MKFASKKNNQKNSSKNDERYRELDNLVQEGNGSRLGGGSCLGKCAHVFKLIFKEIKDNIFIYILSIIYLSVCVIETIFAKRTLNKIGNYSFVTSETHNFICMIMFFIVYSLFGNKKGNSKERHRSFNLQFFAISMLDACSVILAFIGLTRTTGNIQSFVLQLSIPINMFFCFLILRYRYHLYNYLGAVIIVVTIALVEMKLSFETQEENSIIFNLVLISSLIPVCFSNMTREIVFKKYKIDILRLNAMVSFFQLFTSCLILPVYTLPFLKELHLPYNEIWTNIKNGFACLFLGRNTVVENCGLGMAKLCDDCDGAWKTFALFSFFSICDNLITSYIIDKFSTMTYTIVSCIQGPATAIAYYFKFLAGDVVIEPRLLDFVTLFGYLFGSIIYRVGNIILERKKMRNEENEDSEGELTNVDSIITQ
assay method text: cell-based
Format: cell-based
conditions: […], pH 5.5, read-out: [3H]CQ transport (% PfCRTDd2 control), trans-stimulation, PfCRTDd2, trans-stimulation; [test solute]i = 5 mM (injected); PfCRT-mediated component (background subtracted); mean ± SEM; SEM
property: activity at 5000 µM (%)

| molecule | property | display unit | quantitative result |
| --- | --- | --- | --- |
| NC(=O)CC[C@H](N)C(=O)O [L-glutamine] | activity at 5000 µM | % | 99 |
| CC(C)C[C@H](N)C(=O)O [L-leucine] | activity at 5000 µM | % | 95 |
| N[C@@H](CCC(=O)O)C(=O)O [L-glutamic acid] | activity at 5000 µM | % | 99 |
| CC[C@H](C)[C@H](N)C(=O)O [L-isoleucine] | activity at 5000 µM | % | 94 |
| N[C@@H](Cc1ccc(O)cc1)C(=O)O [L-tyrosine] | activity at 5000 µM | % | 99 |
| NCCCC[C@H](N)C(=O)O [L-lysine] | activity at 5000 µM | % | 97 |
| N[C@@H](CS)C(=O)O [L-cysteine] | activity at 5000 µM | % | 97 |
| N[C@@H](Cc1c[nH]c2ccccc12)C(=O)O [L-tryptophan] | activity at 5000 µM | % | 98 |
| CC(C)[C@H](N)C(=O)O [L-valine] | activity at 5000 µM | % | 97 |
| C[C@@H](O)[C@H](N)C(=O)O [L-threonine] | activity at 5000 µM | % | 96 |
| N[C@@H](Cc1ccccc1)C(=O)O [L-phenylalanine] | activity at 5000 µM | % | 99 |
| N=C(N)NCCC[C@H](N)C(=O)O [L-arginine] | activity at 5000 µM | % | 98 |
| C[C@H](N)C(=O)O [L-alanine] | activity at 5000 µM | % | 95 |
| N[C@@H](CO)C(=O)O [L-serine] | activity at 5000 µM | % | 97 |

---

Test system: non-expressing oocytes
assay method text: cells
Format: cell-based, Xenopus laevis
conditions: Xenopus laevis, Oocyte, read-out: Uptake of [3H]CQ (% PfCRTDd2 control), cis-inhibition, non-expressing oocytes; SEM

| compound | inhibition at 2000 µM [%] |
| --- | --- |
| N[C@@H](Cc1ccc(O)cc1)C(=O)O [L-tyrosine] | 2.9 |
| NCCCC[C@H](N)C(=O)O [L-lysine] | 3.3 |
| O=C(O)[C@@H]1CCCN1 [L-proline] | 3.4 |
| CSCC[C@H](N)C(=O)O [L-methionine] | 2.9 |

---

Quick reference for inhibition at 500 µM among some molecules
experimental target: PfCRT^Ecu1110 (Plasmodium falciparum, UniProt Q9N623, A220S/I356L/K76T/N326D)
assay method text: [3H]CQ uptake into Xenopus oocytes, cis-inhibition by unlabelled solute
Format: cell-based
conditions: read-out: [3H]CQ transport (% PfCRTEcu1110 control), cis-inhibition, PfCRTEcu1110; SEM

| molecule | experimental target | inhibition at 500 µM |
| --- | --- | --- |
| CC(C)[C@H](N)C(=O)O [L-valine] | PfCRT^Ecu1110 (Plasmodium falciparum, UniProt Q9N623, A220S/I356L/K76T/N326D) | 30% |
| N[C@@H](Cc1c[nH]c2ccccc12)C(=O)O [L-tryptophan] | PfCRT^Ecu1110 (Plasmodium falciparum, UniProt Q9N623, A220S/I356L/K76T/N326D) | 29% |
| N=C(N)NCCC[C@H](N)C(=O)O [L-arginine] | PfCRT^Ecu1110 (Plasmodium falciparum, UniProt Q9N623, A220S/I356L/K76T/N326D) | 30% |
| N[C@@H](Cc1ccc(O)cc1)C(=O)O [L-tyrosine] | PfCRT^Ecu1110 (Plasmodium falciparum, UniProt Q9N623, A220S/I356L/K76T/N326D) | 29% |
| N[C@@H](Cc1c[nH]cn1)C(=O)O [L-histidine] | PfCRT^Ecu1110 (Plasmodium falciparum, UniProt Q9N623, A220S/I356L/K76T/N326D) | 29% |
| CSCC[C@H](N)C(=O)O [L-methionine] | PfCRT^Ecu1110 (Plasmodium falciparum, UniProt Q9N623, A220S/I356L/K76T/N326D) | 28% |
